test system: tropical house mosquito Culex quinquefasciatus (adults, 3 days old); experiment: Efficacy of formulations on surfaces (glazed/unglazed tiles, plywood), ten 3 day old mosquitoes, 3 min exposure; type: in vivo; settings: 15′; in acetone on glazed tiles; Table 84
Reported % KD and Mortality values for the following compounds.
Dear colleague, please return just the value in %, with no unit written.

CNC(=O)Oc1cccc2c1OC(C)(C)O2 [0.1% bendiocarb] ... 3
CN1C(C)(C)CC(O)CC1(C)C [1% 1,2,2,6,6-Pentamethyl-4-piperidinol] ... 0
O=C(CCCCCCCCC(=O)ON1C(=O)CCC1=O)ON1C(=O)CCC1=O ... 0
CCCCCCCCON1C(C)(C)CC(OC(=O)CCCCCCCCC(=O)OC2CC(C)(C)N(OCCCCCCCC)C(C)(C)C2)CC1(C)C ... 3
COC(=O)CCCCCCCCC(=O)OC [1% Dimethyl sebacate] ... 0

% KD and Mortality value, target or system tropical house mosquito Culex quinquefasciatus (adults, 3 days old), for O=C(CCCCCCCCC(=O)OCc1ccccc1)OCc1ccccc1 [1% Sebacic acid dibenzyl ester] : 0

% KD and Mortality value, target or system tropical house mosquito Culex quinquefasciatus (adults, 3 days old), for O=C(O)CCCCCCCCC(=O)O [1% Sebacic acid] : 3
